These entries and their values trace back to patent US20210188775A1.

# target.system: TEAD3 (Homo sapiens, UniProt Q99594)
# Sequence (Q99594 whole entry, species assumed): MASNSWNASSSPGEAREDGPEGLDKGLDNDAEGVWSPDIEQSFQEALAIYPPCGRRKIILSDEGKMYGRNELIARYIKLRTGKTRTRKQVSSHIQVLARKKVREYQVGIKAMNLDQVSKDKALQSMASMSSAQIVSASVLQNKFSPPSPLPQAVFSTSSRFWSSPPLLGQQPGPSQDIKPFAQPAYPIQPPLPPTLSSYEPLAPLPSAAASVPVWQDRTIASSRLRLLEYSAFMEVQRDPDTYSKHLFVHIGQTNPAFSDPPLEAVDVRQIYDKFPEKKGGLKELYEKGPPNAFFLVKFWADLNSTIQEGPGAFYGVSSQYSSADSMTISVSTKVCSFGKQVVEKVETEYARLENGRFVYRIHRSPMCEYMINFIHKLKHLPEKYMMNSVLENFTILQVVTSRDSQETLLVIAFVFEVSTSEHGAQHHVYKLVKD
# method.description: Lipid HTRF TEAD3
# Assay type: binding
property.label: pIC50
Answers are plain numbers, as −log10 of the molar value.

Worked cases, answers included:
CNC(=O)Cc1cccc(CNC(=O)c2cc(/C=C/[C@H]3CC[C@@H](C(F)(F)F)CC3)c(OC)cn2)c1 [Compound 57A]
6.06
CNC(=O)Cc1cccc(CNC(=O)c2cc(/C=C/[C@H]3CC[C@H](C(F)(F)F)CC3)c(OC)cn2)c1 [Compound 57B]
6.53
CNC(=O)Cc1cccc(CNC(=O)c2cnc(OC)c(/C=C/[C@H]3CC[C@@H](C(F)(F)F)CC3)c2)c1 [Compound 56A]
4.82
CNC(=O)Cc1cccc(CNC(=O)c2cnc(OC)c(/C=C/C3CCC(F)(F)CC3)c2)c1 [Compound 54]
5.40
CNC(=O)Cc1cccc(CNC(=O)c2cc(/C=C/C3CCC(F)(F)CC3)c(OC)cn2)c1 [Compound 55]
6.64

// each compound listed below needs its pIC50
1. CNC(=O)Cc1cccc(CNC(=O)c2cnc(OC)c(/C=C/[C@H]3CC[C@H](C(F)(F)F)CC3)c2)c1 [Compound 56B]
2. C=CS(=O)(=O)Nc1cnc(OC)c(/C=C/C2CCC(F)(F)CC2)c1 [Compound 58]

[5.68, 7.47]

----------
Exercise: for every item that follows, state its recorded pIC50.
# target.system: TEAD2 (Homo sapiens, UniProt Q15562)
# Sequence (Q15562 whole entry, species assumed): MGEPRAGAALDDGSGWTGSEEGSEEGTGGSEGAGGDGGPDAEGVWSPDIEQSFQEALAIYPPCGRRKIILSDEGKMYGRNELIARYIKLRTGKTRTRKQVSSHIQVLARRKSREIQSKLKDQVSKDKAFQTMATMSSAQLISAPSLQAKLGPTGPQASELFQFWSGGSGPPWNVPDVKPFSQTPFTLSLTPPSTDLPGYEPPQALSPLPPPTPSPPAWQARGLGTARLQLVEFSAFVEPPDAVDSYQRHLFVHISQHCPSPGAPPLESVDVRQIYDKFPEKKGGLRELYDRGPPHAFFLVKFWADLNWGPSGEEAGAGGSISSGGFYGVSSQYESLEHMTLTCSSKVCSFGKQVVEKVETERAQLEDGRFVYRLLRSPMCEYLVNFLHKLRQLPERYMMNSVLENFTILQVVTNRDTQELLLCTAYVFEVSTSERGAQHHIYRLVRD
# method.description: Lipid HTRF TEAD2
# Assay type: binding
Numbers only, as −log10 of the molar value.

See these solved cases before continuing.
CNC(=O)Cc1cccc(CNC(=O)c2cnc(OC)c(/C=C/C3CCC(F)(F)CC3)c2)c1
6.84
CNC(=O)Cc1cccc(CNC(=O)c2cc(/C=C/[C@H]3CC[C@H](C(F)(F)F)CC3)c(OC)cn2)c1 [Compound 57B]
7.77
C=CS(=O)(=O)Nc1cnc(OC)c(/C=C/C2CCC(F)(F)CC2)c1
8.00
CNC(=O)Cc1cccc(CNC(=O)c2cnc(OC)c(/C=C/[C@H]3CC[C@@H](C(F)(F)F)CC3)c2)c1 [Compound 56A]
7.10
CNC(=O)Cc1cccc(CNC(=O)c2cc(/C=C/C3CCC(F)(F)CC3)c(OC)cn2)c1
7.05
CNC(=O)Cc1cccc(CNC(=O)c2cc(/C=C/[C@H]3CC[C@@H](C(F)(F)F)CC3)c(OC)cn2)c1 [Compound 57A]
7.34

Give the reported pIC50 for CNC(=O)Cc1cccc(CNC(=O)c2cnc(OC)c(/C=C/[C@H]3CC[C@H](C(F)(F)F)CC3)c2)c1 [Compound 56B] (system: TEAD2 (Homo sapiens, UniProt Q15562)). 7.51

----------
# target.system: TEAD2 (Homo sapiens, UniProt Q15562)
# method.description: TEAD lipid assay (Lipid FP, Bodipy-C16 probe displacement)
# Format: binding
# condition.context: fluorescence polarization, His-tagged TEAD, 60 minutes incubation
property.label: pIC50
Numbers only, as −log10 of the molar value.

Example entries begin here.
COc1cc(F)c(NS(=O)(=O)C2CC2)cc1/C=C/c1ccc(Cl)cc1
5.96
CC[C@H](CO)NC(=O)c1cc(/C=C/[C@H]2CC[C@H](C(F)(F)F)CC2)c(OC)nn1
5.80
COc1ccc(C(=O)NC(C)CCO)cc1/C=C/c1ccc(Cl)cc1 (single isomer, unassigned)
6.02

Each molecule below has a recorded value; state its pIC50.
1. COc1nnc(NS(C)(=O)=O)cc1/C=C/C1CCC(C(F)(F)F)CC1 (centres unmarked)
2. COc1ccc(C(=O)NC(C)C)cc1/C=C/Cc1ccccc1
3. COc1ncc(NS(=O)(=O)CC(C)(C)C#N)cc1/C=C/C1CCC(F)(F)CC1
4. CS(=O)(=O)Nc1cnc(C2CC2)c(/C=C/C2CCC(F)(F)CC2)c1
5. COc1ccc(NS(C)(=O)=O)cc1/C=C/C1CCC(C)(C)CC1

[5.80, 6.14, 5.89, 5.80, 6.22]

----------
# target.system: TEAD3 (Homo sapiens, UniProt Q99594)
# method.description: TEAD lipid assay (Lipid FP, Bodipy-C16 probe displacement)
# Format: binding
# condition.context: fluorescence polarization, His-tagged TEAD, 60 minutes incubation
Please respond with reported pIC50 for every item in the list.
One number for each entry, as −log10 of the molar value.

Can you give me pIC50 for all of these, one by one?
1. COc1ccc(C(=O)NC(C)C)cc1/C=C/Cc1ccccc1 [Compound 30]
2. COc1ncc(NS(C)(=O)=O)cc1/C=C/[C@H]1CC[C@H](C(F)(F)F)CC1 [Compound 16]
3. COc1cnc(NS(C)(=O)=O)cc1/C=C/C1(F)CCC(C(F)(F)F)CC1 (centres unmarked) [Compound 21]
4. COc1nc(F)c(NS(C)(=O)=O)cc1/C=C/C1CCC(F)(F)CC1 [Compound 39]
5. C=CS(=O)(=O)Nc1ccc(OC)c(/C=C/c2ccc(Cl)cc2)c1 [Compound 34]

1: 6.21; 2: 5.92; 3: 6.20; 4: 6.01; 5: 5.92

----------
# target.system: TEAD4 (Homo sapiens, UniProt Q15561)
# Sequence (Q15561 whole entry, species assumed): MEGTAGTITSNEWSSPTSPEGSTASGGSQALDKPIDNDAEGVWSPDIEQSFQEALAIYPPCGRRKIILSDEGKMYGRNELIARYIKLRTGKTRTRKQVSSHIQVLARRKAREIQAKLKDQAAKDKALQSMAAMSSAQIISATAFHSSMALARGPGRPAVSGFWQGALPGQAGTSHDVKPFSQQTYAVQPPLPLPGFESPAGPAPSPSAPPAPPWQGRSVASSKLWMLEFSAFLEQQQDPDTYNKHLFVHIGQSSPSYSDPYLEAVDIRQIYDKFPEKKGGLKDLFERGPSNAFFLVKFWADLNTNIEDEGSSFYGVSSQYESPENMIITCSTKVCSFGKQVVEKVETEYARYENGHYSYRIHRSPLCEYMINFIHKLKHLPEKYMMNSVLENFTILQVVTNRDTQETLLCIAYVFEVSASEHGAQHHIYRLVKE
property.label: pIC50
Answers are plain numbers, as −log10 of the molar value.

Please supply pIC50 for each of the following items, keeping them in order.
1. CNC(=O)Cc1cccc(CNC(=O)c2cc(/C=C/[C@H]3CC[C@H](C(F)(F)F)CC3)c(OC)cn2)c1 [Compound 57B]
2. CNC(=O)Cc1cccc(CNC(=O)c2cnc(OC)c(/C=C/[C@H]3CC[C@@H](C(F)(F)F)CC3)c2)c1 [Compound 56A]
3. CNC(=O)Cc1cccc(CNC(=O)c2cc(/C=C/[C@H]3CC[C@@H](C(F)(F)F)CC3)c(OC)cn2)c1 [Compound 57A]
4. CNC(=O)Cc1cccc(CNC(=O)c2cnc(OC)c(/C=C/C3CCC(F)(F)CC3)c2)c1 [Compound 54]

7.72
6.45
6.88
6.65

I am curious: what pIC50 value has been reported for CNC(=O)Cc1cccc(CNC(=O)c2cnc(OC)c(/C=C/[C@H]3CC[C@H](C(F)(F)F)CC3)c2)c1 [Compound 56B] ? 7.41

----------
# target.system: TEAD2 (Homo sapiens, UniProt Q15562)
# method.description: TEAD lipid assay (Lipid FP, Bodipy-C16 probe displacement)
# Format: binding
# condition.context: fluorescence polarization, His-tagged TEAD, 60 minutes incubation
property.label: IC50 (nM)
Give bare numbers, in nM.

COc1ncc(C(=O)NC(C)CCO)cc1/C=C/c1ccc(Cl)cc1 (single isomer, unassigned) [Compound 19]
1900
CC[C@H](CO)NC(=O)c1cc(/C=C/C2CC3(CC3)C2)c(OC)cn1 [Compound 44]
830
COc1ccc(C(=O)NC(C)C)cc1/C=C/C1CCCCC1 [Compound 29]
1000
CC[C@H](CO)NC(=O)c1cnc(OC)c(/C=C/C2CCC(F)(F)CC2)c1 (racemic) [Compound 35]
1900
COc1cc(F)c(NS(=O)(=O)C2CC2)cc1-c1ccc(C(C)C)cc1 [Compound 11]
560
COc1ccc(NS(C)(=O)=O)cc1/C=C/C1CCCCC1 [Compound 27]
1000
COc1ccc(C(=O)NC(C)C)cc1[C@H]1C[C@H](c2ccc(Cl)cc2)C1 (single isomer, unassigned) [Compound 9A]
780
COc1ccc(C(=O)NC(C)C)cc1-c1ccc(C2CC2)cc1 [Compound 26]
2000

// batch mode: one IC50 value per listed entry
1. COc1nc(F)c(NS(C)(=O)=O)cc1/C=C/CC1CCCC1 [Compound 40]
2. COc1ccc(NS(C)(=O)=O)cc1/C=C/C1CCC(F)(F)CC1 [Compound 2]
3. Cn1cc(Cc2ccc(Cl)cc2)c2cc(NS(C)(=O)=O)ccc21 [Compound 24]
4. COc1ccc(NS(=O)(=O)C2CC2)cc1/C=C/Cc1ccccc1 [Compound 33]
5. C=CS(=O)(=O)Nc1ccc(OC)c(/C=C/c2ccc(Cl)cc2)c1 [Compound 34]
6. COc1ncc(NS(C)(=O)=O)cc1/C=C/CC(C)C [Compound 15]
7. COc1cnc(NS(C)(=O)=O)cc1/C=C/C1CCC(C(F)(F)F)CC1 (stereo not drawn) [Compound 48]

1. 640
2. 1000
3. 360
4. 840
5. 960
6. 1200
7. 1100

----------
# target.system: TEAD2 (Homo sapiens, UniProt Q15562)
# method.description: TEAD lipid assay (Lipid FP, Bodipy-C16 probe displacement)
# Format: binding
# condition.context: fluorescence polarization, His-tagged TEAD, 60 minutes incubation
Would you mind telling me the reported IC50 of each entry?
Numbers only, in nM.

Examples with answers:
COc1ncc(NS(C)(=O)=O)cc1/C=C/C1CCC(F)(F)CC1
380
COc1ncc(NS(C)(=O)=O)cc1C1CC(c2ccc(Cl)cc2)C1 (stereo not drawn)
730
COc1ccc(NS(C)(=O)=O)cc1[C@H]1C[C@H](c2ccc(Cl)cc2)C1 (single isomer, unassigned)
910
COc1ccc(NS(C)(=O)=O)cc1/C=C/C1CCCC1
580

Give IC50 for each of the items listed below.
1. COc1ncc(NS(C)(=O)=O)cc1/C=C/C1CC(C(F)(F)F)C1 (racemic)
2. COc1ccc(C(N)=O)cc1/C=C/C1CCCCC1

750
780

For every record below, what is its IC50?
1. COc1ccc(C(N)=O)cc1/C=C/Cc1ccccc1
2. Cc1cn(Cc2ccc(Cl)cc2)c2cc(NS(C)(=O)=O)ccc12
3. CC[C@H](CO)NC(=O)c1cc(/C=C/C2CCC(F)(F)CC2)c(OC)cn1 (racemic)

610
930
1800
